# Test system: MOLT-4 leukemia
# PROTOCOL_DETAILS: NCI tumour cell line growth inhibition, 48 h
MEASURED_ATTRIBUTE: TGI

| COMPOUND | READOUT_VALUE |
| --- | --- |
| COC(=O)c1ccc2c(c1)C(=O)c1c-2n(CCCCl)c(=O)c2cc([N+](=O)[O-])ccc12 | > 100 µM |
| CO[C@H]1C=CO[C@@]2(C)Oc3c(C)c(O)c4c(O)c(c(CN5CCN(C)CC5)c(O)c4c3C2=O)NC(=O)/C(C)=C\C=C[C@H](C)[C@H](O)C(C)[C@@H](O)C(C)[C@H](OC(C)=O)[C@@H]1C (some centres undefined) | 49.1 µM |
| CNC(=O)NCNC(=O)NC | > 100 µM |

Request the reported TGI associated with `COc1cccc(/C=C/C(=O)c2ccc(SC)cc2)c1OC`
61.6 µM

###

# Tested on: COLO 205 colon
# PROTOCOL_DETAILS: NCI tumour cell line growth inhibition, 48 h
Recorded GI50 for the following molecules

| MOLECULE | TEST_SYSTEM | GI50 |
| --- | --- | --- |
| COC(=O)c1ccc2c(c1)C(=O)c1c-2n(CCCCl)c(=O)c2cc([N+](=O)[O-])ccc12 | COLO 205 colon | > 100 µM |
| C=C(CN1CCN(c2ccc(C(F)(F)F)cc2)CC1)c1ccc(C(=O)Nc2ccccc2N)cc1 | COLO 205 colon | > 100 µM |
| COc1cc(C2CC(c3cccc(Nc4ccnc5cc(Cl)ccc45)c3)=NN2c2ccc(Cl)cc2)cc(OC)c1OC (configuration not stated) | COLO 205 colon | 3.13 µM |

Request the reported GI50 associated with O=C(CC1(O)C(=O)N(Cc2ccccc2)c2ccc(Cl)cc21)c1ccc(C(=O)NCC2CCC3(CC2)OOC2(CCCCC2)OO3)cc1 (configuration not stated)
0.626 µM

Then what about the molecule `C=C1C(=O)O[C@H]2[C@H]1CC/C(COC(=O)NCc1c[nH]c3ccccc13)=C\CC[C@@]1(C)O[C@@H]21` ?
1.81 µM

Then what about the molecule `CCCc1n(Cc2ccc3ccccc3c2)cc[n+]1Cc1ccc2ccccc2c1` ?
0.458 µM

Then what about the molecule `NCCc1ccc(S(=O)(=O)F)cc1` ?
> 100 µM

###

# Test system: IGROV1 ovarian
# PROTOCOL_DETAILS: NCI tumour cell line growth inhibition, 48 h
Recorded TGI for the following molecules

Past entries and their recorded results:
| MOLECULE | READOUT_VALUE |
| --- | --- |
| NC(N)=NS(=O)(=O)c1ccc(N/N=C2/CCOC2=O)cc1 | > 100 µM |
| COC1CCON1C(=O)c1ccccc1 (stereo not given) | > 10 µM |
| Cc1[nH]c(=O)[nH]c(=O)c1/C=C/C(=O)O (tested in a mixture with another compound) | > 625 µM |

Request the reported TGI associated with `CCOC(=O)NN(C(=O)OCC)C(C(=O)C1=CCCCC1)N(NC(=O)OCC)C(=O)OCC`
> 100 µM

Then what about the molecule C=C1CC2(CC(c3ccccc3Cl)OC(c3ccccc3Cl)C2)OC1=O (stereo not given) ?
4.62 µM

###

# Tested on: UO-31 renal
# PROTOCOL_DETAILS: NCI tumour cell line growth inhibition, 48 h
MEASURED_ATTRIBUTE: GI50

Past entries and their recorded results:
| COMPOUND | TEST_SYSTEM | GI50 |
| --- | --- | --- |
| N.N.N.N.N.NC(=O)[O-].[Co+3].[I-] | UO-31 renal | > 100 µM |
| CCCCC(CCCCCC(CCCC)NCc1ccc2c(c1)OCO2)NCc1ccc2c(c1)OCO2 (centres undefined) | UO-31 renal | 0.481 µM |

Request the reported GI50 associated with `O=C(CCl)NCCNc1nccc(Nc2ccc(S(=O)(=O)Nc3ccccn3)cc2)n1`
2.77 µM

Then what about the compound `N#Cc1c(NCc2ccccc2)nc(NCc2ccccc2)c(C#N)c1-c1ccc(O)cc1` ?
18.6 µM

Then what about the compound `CC/C=C\C[C@H](F)C/C=C1/C(=O)C=C[C@@H]1C/C=C\CCCC(=O)OC` ?
2.13 µM

Then what about the compound CN(CCCCCl)P(=O)(OCCS(=O)(=O)CC(NC(=O)CCC(N)C(=O)O)C(=O)NC(C(=O)O)c1ccccc1)OCC1OC(n2ccc(N)nc2=O)C(O)C1O (centres undefined) ?
8.17 µM
